All figures here come from patent US12060368B2.

Target: MMP 7 (Homo sapiens, UniProt P09237)
Construct: recombinant human MMP-1-10, 12, 13 and 14 catalytic domains; purchased Biornol, USA
Sequence (P09237 95-267): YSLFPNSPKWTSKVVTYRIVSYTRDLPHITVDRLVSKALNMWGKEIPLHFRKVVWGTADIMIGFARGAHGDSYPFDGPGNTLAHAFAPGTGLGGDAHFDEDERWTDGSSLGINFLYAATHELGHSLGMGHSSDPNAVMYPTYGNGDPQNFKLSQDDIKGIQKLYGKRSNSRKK
Assay: MMP Inhibitor Fluorimetric Profiling kit, MMP 7
Format: biochemical
Conditions: test compound 20 μM
Description: Inhibition of matrix metalloproteinase enzymes by synthesized selenopheno[3,2-h]chromenes I-1-I-4 was detected on MMP Inhibitor Fluorimetric Profiling kit using NNGH (N-isobutyl-N-4-methoxyphenylsulfonyl)glycyl-hydroxamic acid) as a standard. MMP assay: Inhibitors of matrix metalloproteinase enzymes were detected with the use of MMP Inhibitor Fluorimetric Profiling kit (Biornol, USA) accordingly to manufacturer's instructions. […]
Counter-ions that a name gives are not always drawn.
MEASURE NAME: inhibition at 20 µM (%)
API: value field is a number in %; no unit string.

Please review the following examples before continuing.
{"columns": ["COMPOUND", "inhibition at 20 µM, %"],
 "data": [
  ["O=C(NO)c1cc2ccc3c(Br)c(CCN4CCNCC4)[se]c3c2oc1=O [Compound I-3, hydrochloride]", 20],
  ["O=C(NO)c1cc2ccc3c(Br)c(CN4CCCNCC4)[se]c3c2oc1=O [Compound I-4, hydrochloride]", 16],
  ["O=C(NO)c1cc2ccc3c(Br)c(CN4CCNCC4)[se]c3c2oc1=O [Compound I-2, hydrochloride]", 20]
]}

Query compound follows.
Task item: Can you look up the measured inhibition at 20 µM of CN1CCN(Cc2[se]c3c(ccc4cc(C(=O)NO)c(=O)oc43)c2Br)CC1 [Compound I-1, hydrochloride] for me?
Reply: 28

----------
Examples of molecules with documented inhibition at 20 µM follow.
Molecular target: MMP 10 (stromelysin 2) (Homo sapiens)
Construct: recombinant human MMP-1-10, 12, 13 and 14 catalytic domains; purchased Biornol, USA
Sequence (P09238 99-263 limits assumed): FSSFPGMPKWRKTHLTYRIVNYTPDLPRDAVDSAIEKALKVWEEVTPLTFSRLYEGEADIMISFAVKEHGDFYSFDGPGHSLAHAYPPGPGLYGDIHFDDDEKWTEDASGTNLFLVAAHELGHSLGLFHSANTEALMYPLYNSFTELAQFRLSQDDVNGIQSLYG
Assay: MMP Inhibitor Fluorimetric Profiling kit, MMP 10
Type: biochemical
Conditions: test compound 20 μM
Structures can show the parent of a compound that is named as a salt.
API: value field is a number in %; no unit string.

Please review the following examples before continuing.
{"columns": ["MOLECULE", "inhibition at 20 µM / %"],
 "data": [
  ["O=C(NO)c1cc2ccc3c(Br)c(CCN4CCNCC4)[se]c3c2oc1=O [Compound I-3, hydrochloride]", 100],
  ["O=C(NO)c1cc2ccc3c(Br)c(CN4CCCNCC4)[se]c3c2oc1=O [Compound I-4, hydrochloride]", 99]
]}

Query molecule follows.
Task item: Can you look up the measured inhibition at 20 µM of O=C(NO)c1cc2ccc3c(Br)c(CN4CCNCC4)[se]c3c2oc1=O [Compound I-2, hydrochloride] for me?
Reply: 99

----------
Biological target: MMP 3 (Homo sapiens)
Construct: recombinant human MMP-1-10, 12, 13 and 14 catalytic domains; purchased Biornol, USA
Sequence (P08254 100-272 limits assumed): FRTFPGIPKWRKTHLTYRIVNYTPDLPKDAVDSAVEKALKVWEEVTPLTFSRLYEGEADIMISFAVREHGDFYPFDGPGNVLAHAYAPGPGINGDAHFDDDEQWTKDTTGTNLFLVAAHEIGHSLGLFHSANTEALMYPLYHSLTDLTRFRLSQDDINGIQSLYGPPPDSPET
Assay: MMP Inhibitor Fluorimetric Profiling kit, MMP 3
Type: biochemical
Conditions: test compound 20 μM
Counter-ions that a name gives are not always drawn.
Examples of compounds with documented inhibition at 20 µM follow.
API: value field is a number in %; no unit string.

Please review the following examples before continuing.
{"columns": ["COMPOUND", "inhibition at 20 µM (%)"],
 "data": [
  ["O=C(NO)c1cc2ccc3c(Br)c(CN4CCCNCC4)[se]c3c2oc1=O [Compound I-4, hydrochloride]", 34],
  ["O=C(NO)c1cc2ccc3c(Br)c(CCN4CCNCC4)[se]c3c2oc1=O [Compound I-3, hydrochloride]", 35]
]}

Task item: Could you share what inhibition at 20 µM was measured for CN1CCN(Cc2[se]c3c(ccc4cc(C(=O)NO)c(=O)oc43)c2Br)CC1 [Compound I-1, hydrochloride] , tested on MMP 3 (Homo sapiens)?
Reply: 34

Task item: Could you share what inhibition at 20 µM was measured for O=C(NO)c1cc2ccc3c(Br)c(CN4CCNCC4)[se]c3c2oc1=O [Compound I-2, hydrochloride] , tested on MMP 3 (Homo sapiens)?
Reply: 31

----------
Examples of compounds with documented pIC50 follow.
Molecular target: MMP 9 (Homo sapiens)
Construct: recombinant human MMP-1-10, 12, 13 and 14 catalytic domains
Sequence (P14780 107-444 limits assumed): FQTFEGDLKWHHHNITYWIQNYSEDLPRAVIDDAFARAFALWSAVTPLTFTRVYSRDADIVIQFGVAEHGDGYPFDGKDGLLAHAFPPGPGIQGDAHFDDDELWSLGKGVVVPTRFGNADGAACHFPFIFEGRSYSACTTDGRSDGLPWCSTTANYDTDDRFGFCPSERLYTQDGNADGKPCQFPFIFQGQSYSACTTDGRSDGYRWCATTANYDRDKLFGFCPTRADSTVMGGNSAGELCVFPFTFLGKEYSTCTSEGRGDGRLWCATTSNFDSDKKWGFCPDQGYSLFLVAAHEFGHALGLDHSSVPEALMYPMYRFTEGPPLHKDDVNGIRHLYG
Assay: MMP Inhibitor Fluorimetric Profiling kit, MMP 9
Conditions: ne = no effect; read-out: MMP 9 inhibition IC50
Structures can show the parent of a compound that is named as a salt.
The quantity pIC50 is defined as the negative base-10 logarithm of the molar concentration.

Please review the following examples before continuing.
{"columns": ["COMPOUND", "EXPERIMENTAL TARGET", "pIC50"],
 "data": [
  ["O=C(NO)c1cc2ccc3c(Br)c(CN4CCNCC4)[se]c3c2oc1=O [Compound I-2, hydrochloride]", "MMP 9 (Homo sapiens)", 5.83],
  ["O=C(NO)c1cc2ccc3c(Br)c(CN4CCCNCC4)[se]c3c2oc1=O [Compound I-4, hydrochloride]", "MMP 9 (Homo sapiens)", 5.72]
]}

Query compound follows.
Task item: Can you look up the measured pIC50 of O=C(NO)c1cc2ccc3c(Br)c(CCN4CCNCC4)[se]c3c2oc1=O [Compound I-3, hydrochloride] for me?
Reply: 5.97

----------
Examples of compounds with documented pIC50 follow.
Target: MMP 10 (stromelysin 2) (Homo sapiens)
Construct: recombinant human MMP-1-10, 12, 13 and 14 catalytic domains
Assay: MMP Inhibitor Fluorimetric Profiling kit, MMP 10
Conditions: ne = no effect; read-out: MMP 10 inhibition IC50
Structures can show the parent of a compound that is named as a salt.
The quantity pIC50 is defined as the negative base-10 logarithm of the molar concentration.

{"columns": ["COMPOUND", "MEASURE NAME", "READOUT NUMBER"],
 "data": [
  ["O=C(NO)c1cc2ccc3c(Br)c(CCN4CCNCC4)[se]c3c2oc1=O [Compound I-3, hydrochloride]", "pIC50", 6.02],
  ["CN1CCN(Cc2[se]c3c(ccc4cc(C(=O)NO)c(=O)oc43)c2Br)CC1 [Compound I-1, hydrochloride]", "pIC50", 5.72],
  ["O=C(NO)c1cc2ccc3c(Br)c(CN4CCNCC4)[se]c3c2oc1=O [Compound I-2, hydrochloride]", "pIC50", 5.86]
]}

Query compound follows.
Task item: Can you look up the measured pIC50 of O=C(NO)c1cc2ccc3c(Br)c(CN4CCCNCC4)[se]c3c2oc1=O [Compound I-4, hydrochloride] for me?
Reply: 5.77

----------
Molecular target: MMP 2 (Homo sapiens, UniProt P08253)
Construct: recombinant human MMP-1-10, 12, 13 and 14 catalytic domains
Sequence (P08253 110-446 limits assumed): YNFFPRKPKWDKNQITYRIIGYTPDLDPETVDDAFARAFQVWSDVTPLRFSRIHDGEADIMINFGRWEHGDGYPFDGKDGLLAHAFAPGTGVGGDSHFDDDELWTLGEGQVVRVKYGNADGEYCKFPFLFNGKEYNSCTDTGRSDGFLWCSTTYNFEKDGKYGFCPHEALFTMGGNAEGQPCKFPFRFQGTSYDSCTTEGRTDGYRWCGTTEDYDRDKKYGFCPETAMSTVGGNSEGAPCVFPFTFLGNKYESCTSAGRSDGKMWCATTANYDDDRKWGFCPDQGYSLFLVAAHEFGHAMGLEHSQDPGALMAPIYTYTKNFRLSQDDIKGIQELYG
Test: MMP Inhibitor Fluorimetric Profiling kit, MMP 2
Conditions: ne = no effect; read-out: MMP 2 inhibition IC50
Counter-ions that a name gives are not always drawn.
MEASURE NAME: IC50
Quick note: unit goes after the number.

Please review the following examples before continuing.
{"columns": ["COMPOUND", "EXPERIMENTAL TARGET", "RESULT"],
 "data": [
  ["CN1CCN(Cc2[se]c3c(ccc4cc(C(=O)NO)c(=O)oc43)c2Br)CC1 [Compound I-1, hydrochloride]", "MMP 2 (Homo sapiens, UniProt P08253)", "20 µM"],
  ["O=C(NO)c1cc2ccc3c(Br)c(CN4CCNCC4)[se]c3c2oc1=O [Compound I-2, hydrochloride]", "MMP 2 (Homo sapiens, UniProt P08253)", "1.57 µM"],
  ["O=C(NO)c1cc2ccc3c(Br)c(CCN4CCNCC4)[se]c3c2oc1=O [Compound I-3, hydrochloride]", "MMP 2 (Homo sapiens, UniProt P08253)", "1.13 µM"]
]}

Query compound follows.
Task item: Can you look up the measured IC50 of O=C(NO)c1cc2ccc3c(Br)c(CN4CCCNCC4)[se]c3c2oc1=O [Compound I-4, hydrochloride] for me?
Reply: 1.86 µM

----------
Examples of compounds with documented inhibition at 20 µM follow.
Molecular target: MMP 9 (Homo sapiens)
Construct: recombinant human MMP-1-10, 12, 13 and 14 catalytic domains; purchased Biornol, USA
Experiment: MMP Inhibitor Fluorimetric Profiling kit, MMP 9
Assay type: biochemical
Details: test compound 20 μM
Description: Inhibition of matrix metalloproteinase enzymes by synthesized selenopheno[3,2-h]chromenes I-1-I-4 was detected on MMP Inhibitor Fluorimetric Profiling kit using NNGH (N-isobutyl-N-4-methoxyphenylsulfonyl)glycyl-hydroxamic acid) as a standard. MMP assay: Inhibitors of matrix metalloproteinase enzymes were detected with the use of MMP Inhibitor Fluorimetric Profiling kit (Biornol, USA) accordingly to manufacturer's instructions. […]
Where a name gives a salt, the structure may show the parent alone.

Task item: Can you look up the measured inhibition at 20 µM of O=C(NO)c1cc2ccc3c(Br)c(CN4CCCNCC4)[se]c3c2oc1=O [Compound I-4, hydrochloride] for me?
Reply: 99%

----------
Target: MMP 14 (Homo sapiens, UniProt P50281)
Construct: recombinant human MMP-1-10, 12, 13 and 14 catalytic domains; purchased Biornol, USA
Assay: MMP Inhibitor Fluorimetric Profiling kit, MMP 14
Type: biochemical
Settings: test compound 20 μM
Structures can show the parent of a compound that is named as a salt.
MEASURE NAME: inhibition at 20 µM (%)
API: value field is a number in %; no unit string.

Please review the following examples before continuing.
{"columns": ["COMPOUND", "EXPERIMENTAL TARGET", "inhibition at 20 µM / %"],
 "data": [
  ["O=C(NO)c1cc2ccc3c(Br)c(CN4CCNCC4)[se]c3c2oc1=O [Compound I-2, hydrochloride]", "MMP 14 (Homo sapiens, UniProt P50281)", 98],
  ["O=C(NO)c1cc2ccc3c(Br)c(CCN4CCNCC4)[se]c3c2oc1=O [Compound I-3, hydrochloride]", "MMP 14 (Homo sapiens, UniProt P50281)", 99]
]}

Task item: Can you look up the measured inhibition at 20 µM of CN1CCN(Cc2[se]c3c(ccc4cc(C(=O)NO)c(=O)oc43)c2Br)CC1 [Compound I-1, hydrochloride] for me?
Reply: 58

Task item: Can you look up the measured inhibition at 20 µM of O=C(NO)c1cc2ccc3c(Br)c(CN4CCCNCC4)[se]c3c2oc1=O [Compound I-4, hydrochloride] for me?
Reply: 99
